- ASSAYED_TARGET: NanHGH33 (Clostridium perfringens)
- Sequence (P10481 whole entry, looked up): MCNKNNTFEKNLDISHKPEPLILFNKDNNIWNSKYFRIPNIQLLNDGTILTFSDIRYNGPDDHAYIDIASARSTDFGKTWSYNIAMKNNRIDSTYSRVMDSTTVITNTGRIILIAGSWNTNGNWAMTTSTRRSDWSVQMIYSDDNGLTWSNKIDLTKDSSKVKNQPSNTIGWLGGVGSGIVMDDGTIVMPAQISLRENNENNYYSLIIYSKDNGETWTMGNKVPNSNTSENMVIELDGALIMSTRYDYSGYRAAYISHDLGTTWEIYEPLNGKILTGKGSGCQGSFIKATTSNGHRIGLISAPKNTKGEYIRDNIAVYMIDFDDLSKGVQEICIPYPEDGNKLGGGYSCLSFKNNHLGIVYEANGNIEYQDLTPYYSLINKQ
- PROTOCOL_NOTES: biochemical
- Type: biochemical
REPORTED_ENDPOINT: Ki

>>> result("CC(=O)N[C@H]1NC[C@H](C(=O)O)[C@H](O)[C@@H]1O")
"125 µM"
>>> result("CC(=O)N[C@H]1[C@H]([C@H](O)[C@H](O)CO)OC(C(=O)O)=C[C@@H]1N=C(N)N")
"> 100 µM"

# input for lookup
The reported NanHGH33 (Clostridium perfringens) Ki of CCOC(=O)C1=C[C@@H](OC(CC)CC)[C@H](NC(C)=O)[C@@H](N)C1 is > 100 µM
